Biological target: T1, Peptide 4: Biotin-AGGGGSGGGGSGGGGSAAA-Tyr-acid (N-terminal biotin; C-terminal acid; no PC)
T1 construct: control peptide without PC
T1 peptide: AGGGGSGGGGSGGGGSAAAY
Experiment: scFv ELISA
MEASURE: OD450

{"BINDER": "PcOxP_DB01_C09 (scFv, V domains shown, scFv in periplasmic extract) VH: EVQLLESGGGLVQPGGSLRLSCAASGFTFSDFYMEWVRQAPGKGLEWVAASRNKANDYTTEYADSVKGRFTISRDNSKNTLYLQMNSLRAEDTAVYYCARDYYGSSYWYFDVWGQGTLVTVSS VL: DIVMTQSPDSLAVSLGERATINCTASQSVYSSKNKVHYLAWYQQKPGQPPKLLIYGASNRYIGVPDRFSGSGSGTDFTLTISSLQAEDVAVYYCAQFYSYPLTFGGGTKVEIK", "RESULT": "0.05 OD450"}

Moving on to another binder below.
Kindly indicate its recorded OD450. Item: PcOxP_DB04_A12 (scFv, V domains shown, scFv in periplasmic extract) VH: EVQLLESGGGLVQPGGSLRLSCAASGFTFSDGYMEWVRQAPGKGLEWVAASRNKWNDYTTEYADSVKGRFTISRDNSKNTLYLQMNSLRAEDTAVYYCARDYYGSSYWYFDVWGQGTLVTVSS VL: DIQMTQSPSSLSASVGDRVTITCTASESLYSSKHKVHYLAWYQQKPGKAPKLLIYGASNRYDGVPSRFSGSGSGTDFTLTISSLQPEDFATYYCAQFYSYPLTFGGGTKVEIK
0.07 OD450
